# Tested on: β-galactosidase in CMV-LacZ C2C12 myoblasts
# Assay procedure: CMV-LacZ secondary screen in C2C12 myoblasts (β-Gal stabilizing assay)
# Type: cell-based, mouse
# Assay setup: 0.5 uM; SU9516 analogs, C2C12 CMV-LacZ, N=2
Reported endpoint: CMV-LACZ in Myoblasts, value relative to DMSO
Answers are plain numbers.

Please look at the items below and tell me CMV-LACZ in Myoblasts, value relative to DMSO for each one, in order.
1. CN1CCN(c2ccccc2/C=C2/C(=O)Nc3ccccc32)CC1
2. O=C1Nc2ccccc2/C1=C/c1ccccc1Cl
3. COc1ccc2c(c1)/C(=C\c1cccc(/C=C3/C(=O)Nc4ccc(OC)cc43)n1)C(=O)N2
4. CCn1c(O)c(C(C#N)=C2N=c3ccccc3=N2)c2ccccc21
5. Cc1ccc2c(c1)/C(=C/c1ccccc1C)C(=O)N2
6. O=Nc1c(-c2c(O)[nH]c3ccccc23)[nH]c2ccccc12 [NCGC00015545-07]

-- reply
1. 1.1229
2. 1.0625
3. 0.8643
4. 0.9922
5. 1.0546
6. 1.2967

----------
For each of the compounds below, state its CMV-LACZ in Myotubes, signal relative to DMSO.
# Test system: β-galactosidase in CMV-LacZ C2C12 myotubes
# Assay procedure: CMV-LacZ secondary screen in C2C12 myotubes (β-Gal stabilizing assay)
# Format: cell-based, mouse
# Assay setup: 40 uM; C2C12 CMV-LacZ myotubes; fold relative to DMSO
One number for each entry.

-- ask Could you share which CMV-LACZ in Myotubes, signal relative to DMSO value was measured for CC(OC(=O)c1cc(-c2cccnc2)nc2ccccc12)C(=O)Nc1ccc2ccccc2c1 (stereo not drawn) [MLS000389484-01] ?
-- reply 2.781

-- ask Could you share which CMV-LACZ in Myotubes, signal relative to DMSO value was measured for Cc1cc(C)nc(NC(=O)c2ccc(Cl)cc2Cl)n1 [MLS000706349-01] ?
-- reply 1.1355

-- ask Could you share which CMV-LACZ in Myotubes, signal relative to DMSO value was measured for CNC(=O)/C(=C\c1cccc(Oc2ccccc2)c1)NC(=O)c1ccccc1 [MLS000389677-01] ?
-- reply 0.761

-- ask Could you share which CMV-LACZ in Myotubes, signal relative to DMSO value was measured for CCC(=O)c1ccc(OCC(O)CN2CC(C)OC(C)C2)cc1.O=C(O)C(=O)O (stereo not drawn) [MLS000053342-01] ?
-- reply 1.1344

-- ask Could you share which CMV-LACZ in Myotubes, signal relative to DMSO value was measured for Cc1ccccc1C(=O)Nc1scc(-c2ccc(Br)cc2)c1C(=O)O [MLS001179267-01] ?
-- reply 0.5554

-- ask Could you share which CMV-LACZ in Myotubes, signal relative to DMSO value was measured for Cc1ccc2c(c1)/C(=C/c1ccco1)C(=O)N2 [MLS000682750-01] ?
-- reply 1.0579

Please look at the items below and tell me CMV-LACZ in Myotubes, signal relative to DMSO for each one, in order.
1. COc1ccc(Cl)cc1NC(=O)CC(=O)Nc1cc(Cl)ccc1OC [MLS001166704-01]
2. CC1CC(C)(C)NC(=S)N1CC(=O)N(C)Cc1ccccc1 (stereo not drawn) [MLS000586245-01]
3. Cc1cc(C(=O)Nc2cccc3ccccc23)c(C)o1 [MLS001219345-01]

-- reply
1.0685
1.2656
1.0255

----------
# Test system: β-galactosidase in CMV-LacZ C2C12 myoblasts
# Assay procedure: CMV-LacZ secondary screen in C2C12 myoblasts (β-Gal stabilizing assay)
# Format: cell-based, mouse
# Assay setup: 5 uM; SU9516 analogs, C2C12 CMV-LacZ, N=2
Reported endpoint: CMV-LACZ in Myoblasts, value relative to DMSO

-- ask Could you share which CMV-LACZ in Myoblasts, value relative to DMSO value was measured for "O=C1C(c2c(O)[nH]c3ccccc23)=Nc2ccccc21" ?
-- reply 2.4679

-- ask Could you share which CMV-LACZ in Myoblasts, value relative to DMSO value was measured for CCN(CC)CCNC(=O)c1c(C)[nH]c(/C=C2\C(=O)Nc3ccc(F)cc32)c1C [NCGC00164631-04] ?
-- reply 0.6842

-- ask Could you share which CMV-LACZ in Myoblasts, value relative to DMSO value was measured for "CC(C)Oc1ccc(C(=O)/C=C2/C(=O)Nc3ccccc32)cc1" ?
-- reply 1.3014

-- ask Could you share which CMV-LACZ in Myoblasts, value relative to DMSO value was measured for "O=C1Nc2ccccc2/C1=C/c1cccnc1" ?
-- reply 1.0215

-- ask Could you share which CMV-LACZ in Myoblasts, value relative to DMSO value was measured for "CCO/C(C)=C1\C(=O)Nc2ccccc21" ?
-- reply 0.9003

Please look at the items below and tell me CMV-LACZ in Myoblasts, value relative to DMSO for each one, in order.
1. Cc1[nH]c(C=C2C(=O)Nc3ccccc32)c(C)c1CCC(=O)O
2. Cc1ccc2c(c1)/C(=C/c1ccc(F)cc1)C(=O)N2
3. CCc1nc(/C=C2\C(=O)Nc3ccccc32)c[nH]1
4. COc1ccc(C(=O)/C=C2/C(=O)Nc3ccccc32)cc1
5. O=Nc1c(-c2c(O)[nH]c3ccccc23)[nH]c2ccccc12 [NCGC00015545-02]
6. CN1CCN(c2ccccc2/C=C2/C(=O)Nc3ccccc32)CC1

-- reply
1. 1.1634
2. 1.0533
3. 0.9591
4. 0.9336
5. 0.9440
6. 0.9113

----------
# System: β-galactosidase in CMV-LacZ C2C12 myoblasts
# Assay procedure: CMV-LacZ secondary screen in C2C12 myoblasts (β-Gal stabilizing assay)
# Assay type: cell-based, mouse
# Assay setup: 20 uM; SU9516 analogs, C2C12 CMV-LacZ, N=2
Reported endpoint: CMV-LACZ in Myoblasts, value relative to DMSO
Give bare numbers.

Answered examples (5):
-- ask Could you share which CMV-LACZ in Myoblasts, value relative to DMSO value was measured for Cc1[nH]c(/C=C2\C(=O)Nc3ccc(S(=O)(=O)Cc4c(Cl)cccc4Cl)cc32)c(C)c1C(=O)C1CCCN1CN1CCCC1 (stereo not drawn) ?
-- reply 0.3570

-- ask Could you share which CMV-LACZ in Myoblasts, value relative to DMSO value was measured for "CC(C)Oc1ccc(C(=O)/C=C2/C(=O)Nc3ccccc32)cc1" ?
-- reply 1.2922

-- ask Could you share which CMV-LACZ in Myoblasts, value relative to DMSO value was measured for "COc1ccc2c(c1)C(=C(C#N)C#N)C(=O)N2CCc1ccccc1" ?
-- reply 1.2981

-- ask Could you share which CMV-LACZ in Myoblasts, value relative to DMSO value was measured for "Cc1ncc(/C=C2\C(=O)Nc3ccccc32)[nH]1" ?
-- reply 0.8115

-- ask Could you share which CMV-LACZ in Myoblasts, value relative to DMSO value was measured for "Cc1ccc2c(c1)/C(=C/c1ccccc1C)C(=O)N2" ?
-- reply 0.7204

Please look at the items below and tell me CMV-LACZ in Myoblasts, value relative to DMSO for each one, in order.
1. O=C1Nc2ccccc2/C1=C/c1cccnc1
2. COc1ccccc1/C=C1\C(=O)Nc2ccccc21

-- reply
1: 0.3893; 2: 1.0817

Please look at the items below and tell me CMV-LACZ in Myoblasts, value relative to DMSO for each one, in order.
1. O=C1C(c2c(O)[nH]c3ccccc23)=Nc2ccccc21
2. COc1ccc(C(=O)/C=C2/C(=O)Nc3ccccc32)cc1

-- reply
1.0247
2.1030

----------
For each of the compounds below, state its CMV-LACZ in Myotubes, signal relative to DMSO.
# Test system: β-galactosidase in CMV-LacZ C2C12 myotubes
# Assay procedure: CMV-LacZ secondary screen in C2C12 myotubes (β-Gal stabilizing assay)
# Format: cell-based, mouse
# Assay setup: 10 uM; C2C12 CMV-LacZ myotubes; fold relative to DMSO
Answers are plain numbers.

Answered examples (4):
-- ask Could you share which CMV-LACZ in Myotubes, signal relative to DMSO value was measured for CC(C)(C)NC(=O)NC(=O)CN1CCN(Cc2ccccc2)CC1 [MLS001006302-01] ?
-- reply 1.0122

-- ask Could you share which CMV-LACZ in Myotubes, signal relative to DMSO value was measured for N/C(=N\OC(=O)c1cccc(C(F)(F)F)c1)c1cnccn1 [MLS001098105-01] ?
-- reply 1.3183

-- ask Could you share which CMV-LACZ in Myotubes, signal relative to DMSO value was measured for NC(=O)c1cccnc1Oc1ccc(Cl)cc1Cl [MLS000861434-01] ?
-- reply 0.8027

-- ask Could you share which CMV-LACZ in Myotubes, signal relative to DMSO value was measured for O=c1c2cc(-c3ccccc3)sc2nc2n1N=C(c1ccccc1)CS2 [MLS000858981-01] ?
-- reply 0.9781

Others:
-- ask Could you share which CMV-LACZ in Myotubes, signal relative to DMSO value was measured for O=c1[nH]c(CN2CCCCC2)nc2c1C1(CCCCC1)Cc1ccccc1-2 [MLS000028160-01] ?
-- reply 0.9249
